B1: H2-Kb / B10 (parent)
chain 1: GQQVQQSPASLVLQEGENAELQCNFSSTATRLQWFYQRPGGSLVSLLSNPSGTKHTGRLTSTTVTKERRGSLHISSSQITDSGTYLCAPGGSNAKLTFGKGTKLSVKS
chain 2: DPKIIQKPKYLVAVTGSEKILICEQYLGHNAMYWYRQSAKKPLEFMFSYSYQKLMDNQTASSRFQPQSSKKNHLDLQITALKPDDSATYFCASSLRGGNNQAPLFGEGTRLSVL
chain 3: not shown
chain 4: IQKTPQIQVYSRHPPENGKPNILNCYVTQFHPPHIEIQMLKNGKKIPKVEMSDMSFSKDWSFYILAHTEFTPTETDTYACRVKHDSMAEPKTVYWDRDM
chain 5: SIINFEKL

variants of: B1; experiment: % of reporter cells activated (NFAT-GFP), raw; conditions: with B10; scale: % of reporter cells activated; further: test concentration or dose not given here
METRIC NAME: ratio to parent

chain 5 N4M ... 0.932

[1] chain 5 K7T
[2] chain 5 S1P
[3] chain 5 L8Y
[4] chain 5 N4P
Rank descending by ratio to parent. Put the labels in the order asked and list them.
4, 1, 2, 3
(4: 1.81, 1: 1.22, 2: 0.849, 3: 0.356)

[P] chain 5 K7W
[Q] chain 5 K7N
Of P and Q , which shows the smaller ratio to parent value? Output the label that corresponds to your choice.
P
(P: 1, Q: 1.54)

[a] chain 5 K7G
[b] chain 5 K7E
Select one: a or b . Criterion: greater recorded ratio to parent. Reply briefly: the label of your chosen item.
b
(b: 1.37, a: 0.898)

[I] chain 5 I2P
[II] chain 5 N4F
[III] chain 5 K7Q
Rank by ratio to parent (largest to smallest). I would appreciate it if you listed the labels in the requested order.
II, I, III
(II: 1.51, I: 1, III: 0.636)
